Test system: V595E transitional epithelial cancer cells (TCCV-So strain)
Experimental Protocol: Cell proliferation suppressing test (WST 1), TCCV-So strain
Assay type: cell-based, canine
Assay Conditions: Canis lupus familiaris
From the text: […]
Assay Readout: pIC50
// pIC50 here means minus log10 of the molar concentration (mol/L)

Exam item: Entry COc1cc2ncnc(Oc3cccc(NC(=O)Nc4cc(C(C)(C)C(F)(F)F)on4)c3)c2cc1OC needs its pIC50 filled in; supply it.
Marked response: 7.82
